Test: Brain tissue binding, rapid equilibrium dialysis
Type: in vitro ADME, rat
Settings: pH 7.4; SD rat brain homogenate
MEASURED ATTRIBUTE: recovery at 4 h, 2 µM (%)
Your answer is read as %, so omit the unit and give the number.

Problem: Any idea what recovery at 4 h, 2 µM was measured for CC(C)NCC(O)COc1cccc2ccccc12 (stereo not shown) [Propranolol, reference compound] ?
Solution: 78.2

====

Biological target: CYP3A4 (Homo sapiens)
Sequence (P08684 whole entry): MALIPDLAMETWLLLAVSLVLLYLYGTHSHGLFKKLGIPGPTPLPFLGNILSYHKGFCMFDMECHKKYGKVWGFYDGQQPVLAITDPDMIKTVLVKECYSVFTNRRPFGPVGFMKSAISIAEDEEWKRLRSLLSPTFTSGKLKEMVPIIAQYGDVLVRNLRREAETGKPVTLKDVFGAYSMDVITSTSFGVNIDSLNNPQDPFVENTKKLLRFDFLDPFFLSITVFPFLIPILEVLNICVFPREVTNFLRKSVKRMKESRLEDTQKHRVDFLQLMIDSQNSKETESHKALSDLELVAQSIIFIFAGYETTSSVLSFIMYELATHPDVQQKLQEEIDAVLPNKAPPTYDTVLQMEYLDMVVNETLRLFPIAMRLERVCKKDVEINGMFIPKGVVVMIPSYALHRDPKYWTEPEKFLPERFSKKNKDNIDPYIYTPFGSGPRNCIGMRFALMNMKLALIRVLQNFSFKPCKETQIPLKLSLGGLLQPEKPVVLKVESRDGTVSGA
Experiment: CYP450 inhibition in HLM
Conditions: read-out: IC50 CYP3A4/Testosterone; (-)NADPH pre-incubation
MEASURED ATTRIBUTE: IC50

Problem: Could you share which IC50 value was measured for FC(F)(F)c1c(Cl)ccc(-n2ccnn2)c1Cl [8l] ?
Solution: > 50 µM

# credit: paper PMC9150124
